Target: T1, recombinant human MASP1 active protease (amino acids 297-699, C-terminal His Tag) (human, UniProt P48740 297-699)
T1 sequence: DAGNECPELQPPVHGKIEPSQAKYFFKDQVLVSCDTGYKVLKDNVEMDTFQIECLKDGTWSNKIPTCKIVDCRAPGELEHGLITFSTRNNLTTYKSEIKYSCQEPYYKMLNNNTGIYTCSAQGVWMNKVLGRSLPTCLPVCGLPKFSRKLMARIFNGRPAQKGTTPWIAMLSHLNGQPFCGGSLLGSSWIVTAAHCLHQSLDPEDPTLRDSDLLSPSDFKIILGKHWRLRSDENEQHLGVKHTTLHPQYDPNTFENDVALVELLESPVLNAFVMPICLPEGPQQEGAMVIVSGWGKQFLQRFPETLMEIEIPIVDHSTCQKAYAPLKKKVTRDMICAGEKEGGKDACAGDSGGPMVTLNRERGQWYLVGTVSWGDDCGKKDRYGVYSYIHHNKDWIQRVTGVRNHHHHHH
Assay: cell-based or functional assay
Bridge positions count the residues as written; N and C are the ends. Square brackets hold non-standard residues; d marks the D form. Ends that are not written are not given here. Oic = O=C(O)[C@@H]1C[C@@H]2CCCC[C@@H]2N1; PEG7 = NCCOCCOCCOCCOCCOCCOCCOCCC(=O)O; tBuAla = CC(C)(C)C[C@H](N)C(=O)O; PEG5 = NCCOCCOCCOCCOCCOCCC(=O)O; Pen = CC(C)(S)[C@H](N)C(=O)O; NMeC = CN[C@@H](CS)C(=O)O; Orn = NCCC[C@H](N)C(=O)O; Aze = O=C(O)[C@@H]1CCN1; Sar = CNCC(=O)O
readout_name: human MASP1 IC50

// known answers, use as guide
| binder | readout_name | result |
| --- | --- | --- |
| [Aze]ICSRS[tBuAla]PPI[Pen]IPD-NH2 (disulfide 3-11) [(Azetidine-2-carboxylic acid)-IC+SRS-((tBu)A)-PPI-(Pen)+IPD-NH2] | human MASP1 IC50 | 2.4 nM |
| [Orn]ICSRS[tBuAla]PPI[NMeC]I-NH2 (disulfide 3-11; N-terminus assumed; SMILES CC[C@H](C)[C@H](NC(=O)[C@@H]1CSSC[C@H](NC(=O)[C@@H](NC(=O)[C@@H](N)CCCN)[C@@H](C)CC)C(=O)N[C@@H](CO)C(=O)N[C@@H](CCCNC(=N)N)C(=O)N[C@@H](CO)C(=O)N[C@@H](CC(C)(C)C)C(=O)N2CCC[C@H]2C(=O)N2CCC[C@H]2C(=O)N[C@@H]([C@@H](C)CC)C(=O)N1C)C(N)=O) [(Orn)-IC+SRS-((tBu)A)-PPI-((N-Me)C)+I-NH2] | human MASP1 IC50 | 2.6 nM |
| [Sar]ICSRS[tBuAla]PPI[Pen]IP[PEG7]-NH2 (disulfide 3-11; N-terminus assumed; SMILES CC[C@H](C)[C@H](NC(=O)CNC)C(=O)N[C@H]1CSSC(C)(C)[C@@H](C(=O)N[C@H](C(=O)N2CCC[C@H]2C(=O)NCCOCCOCCOCCOCCOCCOCCOCCC(N)=O)[C@@H](C)CC)NC(=O)[C@H]([C@@H](C)CC)NC(=O)[C@@H]2CCCN2C(=O)[C@@H]2CCCN2C(=O)[C@H](CC(C)(C)C)NC(=O)[C@H](CO)NC(=O)[C@H](CCCNC(=N)N)NC(=O)[C@H](CO)NC1=O) [((N-Me)G)-IC+SRS-((tBu)A)-PPI-(Pen)+IP-(PEG7(25 atoms))-NH2] | human MASP1 IC50 | 1.6 nM |
| [Sar]ICSRSLP[Oic]I[Pen]IP[PEG5]-NH2 (disulfide 3-11; N-terminus assumed; SMILES CC[C@H](C)[C@H](NC(=O)CNC)C(=O)N[C@H]1CSSC(C)(C)[C@@H](C(=O)N[C@H](C(=O)N2CCC[C@H]2C(=O)NCCOCCOCCOCCOCCOCCC(N)=O)[C@@H](C)CC)NC(=O)[C@H]([C@@H](C)CC)NC(=O)[C@@H]2C[C@@H]3CCCC[C@@H]3N2C(=O)[C@@H]2CCCN2C(=O)[C@H](CC(C)C)NC(=O)[C@H](CO)NC(=O)[C@H](CCCNC(=N)N)NC(=O)[C@H](CO)NC1=O) [((N-Me)G)-IC+SRSLP-(Oic)-I-(Pen)+IP-(PEG4(19 atoms))-NH2] | human MASP1 IC50 | 2.6 nM |

### Prompt human MASP1 IC50 for VICSRS[tBuAla]PPI[Pen]IPD-NH2 (disulfide 3-11; N-terminus assumed; SMILES CC[C@H](C)[C@H](NC(=O)[C@@H](N)C(C)C)C(=O)N[C@H]1CSSC(C)(C)[C@@H](C(=O)N[C@H](C(=O)N2CCC[C@H]2C(=O)N[C@@H](CC(=O)O)C(N)=O)[C@@H](C)CC)NC(=O)[C@H]([C@@H](C)CC)NC(=O)[C@@H]2CCCN2C(=O)[C@@H]2CCCN2C(=O)[C@H](CC(C)(C)C)NC(=O)[C@H](CO)NC(=O)[C@H](CCCNC(=N)N)NC(=O)[C@H](CO)NC1=O) [VIC+SRS-((tBu)A)-PPI-(Pen)+IPD-NH2] ?
### Response 2 nM
